These entries and their values trace back to patent US6875741.

Target: soluble IGF-1R (UniProt P08069)
Assay: phage ELISA; A405 on IGF-1R / A405 on non-fat milk
Hi there, I'd appreciate the recorded ratio over background (fold over background) for every entry that follows.
Numbers only.

These recorded examples may help you get a feel for the data.
[
  {
    "BINDER": "DYKDGLDHSDAVGVHLGFAWPAQARGRWEAGGLEDTWAGYDWLAAAGAP (peptide, not shown: large carriers) [40F-4-B1-IGFR]",
    "RECORDED_MEASUREMENT": 3
  },
  {
    "BINDER": "DYKDSRVAATKEKRPSDDPFYHKLSELLQGSAAAGAP (peptide, not shown: large carriers) [B6Hα-3-F7-IR]",
    "RECORDED_MEASUREMENT": 3.1
  }
]

Moving on to another binder below.
Query: ratio over background (fold over background); subject: DYKDAETSAQVGWQRLWSVWPGDHWSTLDPFYHKLSELLRESGAAAAGAP (peptide, not shown: large carriers) [B6L-3-G5-IR]
2
